System: 475296-252-R-J1-PDC spheroid viability;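 further: spheroids exposed to agents for seven days before readout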
assay method text: Anticancer human tumor 475296-252-R-J1-PDC patient-derived rectal carcinoma cell line growth inhibition [PI3K]
conditions used: second compound 0.0316 µM; first compound 0.03 µM; hits give low values; spheroids with HUVEC and MSC
measured parameter: viability, T/C (%)
The reply should be a number in %, with the unit left off.

Consider the following illustrative entries.
compound: Cn1cnc2c(F)c(Nc3ccc(Br)cc3Cl)c(C(=O)NOCCO)cc21 + Cc1nc(NC(=O)N2CCCC2C(N)=O)sc1-c1ccnc(C(C)(C)C(F)(F)F)c1
measured parameter: viability, T/C
unit of measurement: %
measured result: 81.9
//
compound: Cn1cnc2c(F)c(Nc3ccc(Br)cc3Cl)c(C(=O)NOCCO)cc21 + CC(Nc1ncnc2nc[nH]c12)c1cc2cccc(Cl)c2c(=O)n1-c1ccccc1
measured parameter: viability, T/C
unit of measurement: %
measured result: 84.9
//
compound: Cn1cnc2c(F)c(Nc3ccc(Br)cc3Cl)c(C(=O)NOCCO)cc21 + CC(Nc1ccc2c(c1)OCCn1cc(N3C(=O)OCC3C(F)F)nc1-2)C(N)=O
measured parameter: viability, T/C
unit of measurement: %
measured result: 96

Please examine the following record next.
Given item Cn1cnc2c(F)c(Nc3ccc(Br)cc3Cl)c(C(=O)NOCCO)cc21 + COc1c(OCCCN2CCOCC2)ccc2c3n(c(=NC(=O)c4cnc(N)nc4)nc12)CCN3 , the value recorded as its viability, T/C is 63.3
